# experimental_details: PSAC antagonists in infected red cells, primary screen, cell-based, P. falciparum Indochina, OD700, 1 h (AID 1154)
# condition_description: P. falciparum Indochina infected RBC osmotic lysis, higher = more signal, called active from +8 up or from −8 down
Entry flag: condition met if z-score reaches 9; condition not met if it does not.

Would you say C=CCC(OC(C)=O)[C@@H]1[C@@H](N(Cc2cccc3ccccc23)C(=O)c2cccc3ccccc23)c2cc(OCCCO)ccc2N1C(=O)c1ccc2ccccc2c1 (stereo not given in full) shows z-score at minimum 9?
condition not met

Would you say CCc1cccc(NC(=O)O[C@H]2[C@H](OC(=O)Nc3ccccc3)[C@H](OC(=O)Nc3ccccc3)[C@@H](OC)O[C@@H]2CO)c1 shows z-score at minimum 9?
condition met

Would you say CO[C@H]1O[C@H](CO)[C@@H](OC(=O)Nc2ccc(C#N)cc2)[C@@H]2OC(=O)[C@H](Cc3cccc(Br)c3)C/C=C/C[C@@H](Cc3cccc(Br)c3)C(=O)O[C@@H]12 shows z-score at minimum 9?
condition not met

Would you say C=C(/C(=C/C[C@@H](OC(=O)c1ccncc1)c1cccc(OCCO)c1)c1cnc2ccccc2c1)C(C)C shows z-score at minimum 9?
condition met

Would you say O=C(NCC(O)CO)[C@@]1(CCS(=O)(=O)c2ccccc2)COC(c2ccc(OCCCO)cc2)=N1 (stereo not given in full) shows z-score at minimum 9?
condition met

Would you say COc1cc(NN2C(C(O)C3CCCCC3)C=CC3C(=O)N(C)C(=O)C32)cc(OC)c1OC (stereo not given) shows z-score at minimum 9?
condition not met

Would you say COc1ccc([Si](C)(C)[C@H]2[C@H](CC(=O)N3CCC[C@H]3CO)O[C@@]3(C(=O)N(Cc4ccc(N5CCC5=O)cc4)c4ccccc43)[C@@H]2C)cc1 shows z-score at minimum 9?
condition met

Would you say CC(C)(C)OC(=O)CC[C@]12N=C(c3ccc(OCCCO)cc3)O[C@H]1c1ccccc1N(Cc1ccccc1)C2=O shows z-score at minimum 9?
condition met

Would you say O=C1c2ccccc2[C@](Cc2ccccc2I)(C(=O)NC2CC2)[C@H](c2ccc(CO)cc2)N1Cc1ccccc1C(F)(F)F shows z-score at minimum 9?
condition not met

Would you say COc1ccc([Si](C)(C)[C@@H]2[C@@H](CC(=O)N3Cc4ccccc4C[C@H]3CO)O[C@]3(C(=O)N(Cc4ccc(N5CCC5=O)cc4)c4ccccc43)[C@H]2C)cc1 shows z-score at minimum 9?
condition not met

Would you say O=C1C2C=CC(C(O)c3cccc(O)c3)N(Nc3ccccc3)C2C(=O)N1c1ccccc1 (stereo not given) shows z-score at minimum 9?
condition not met

Would you say Cc1ccc(N2C(=O)c3ccccc3[C@](C)(C(=O)NCc3ccccc3)[C@@H]2c2ccc(CO)cc2)nc1 shows z-score at minimum 9?
condition not met

Would you say COc1ccc([Si](C)(C)[C@@H]2[C@@H](CCn3cc([C@H](O)c4ccccc4)nn3)O[C@]3(C(=O)N(c4ccccc4)c4ccccc43)[C@H]2C)cc1 shows z-score at minimum 9?
condition not met

Would you say CCOC(=O)C1=C[C@@H](c2ccccc2)N(S(=O)(=O)c2ccc(C)cc2)[C@H]1c1ccccc1 shows z-score at minimum 9?
condition met
